# target_or_system: Sentrin-specific protease 8 (Homo sapiens);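 note: luminescence read-out of SENP8 inhibition, dose-response confirmation following an ultra-high-throughput screen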
# Sequence (Q96LD8 whole entry): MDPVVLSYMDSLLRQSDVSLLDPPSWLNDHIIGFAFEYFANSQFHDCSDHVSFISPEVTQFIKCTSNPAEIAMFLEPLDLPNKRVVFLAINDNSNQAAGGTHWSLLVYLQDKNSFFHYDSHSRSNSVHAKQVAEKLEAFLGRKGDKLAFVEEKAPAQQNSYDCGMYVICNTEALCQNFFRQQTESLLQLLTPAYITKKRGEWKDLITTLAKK
# Type: functional
Activity calls are given as the source filed them.
Outcome codes: active, inactive

Cc1cc(C(=O)N=Nc2c(O)n(C)c3ccccc23)c(C)o1 | inactive
Cc1ccc(C(=O)NNc2cc(N3CCCC3)nc(N3CCCC3)n2)cc1 | active
Oc1nc(Nc2ccccc2)sc1/C=C1\C=Nc2ccccc21 | inactive
CN(C)c1ccc(N=Nc2cccc3ccoc23)cc1 | active
Cc1cc(/C=C2\SC(=S)N(C)C2=O)c(C)n1-c1ccc(O)cc1 | active
Oc1ccc(-c2nc3ccccn3c2NCc2ccco2)cc1 | active
Cc1ccc(-c2cc(-c3cccc(F)c3)[nH]n2)c(O)c1 | active
Cc1ccc(COc2ccc(/C=N/O)cc2)cc1 | active
